test system: Arabidopsis thaliana; assay: Inhibition of triple response phenotype in Arabidopsis thaliana seedlings expressing eto1-4 mutant by measuring hypocotyl elongation at 10 uM 3 days after germination in dark; type: functional; conditions: 72 h
The threshold is inclusive: inhibition at 10 µM of exactly 40% counts as Condition met; values below receive Condition not met.

compound: O=C1CC(c2ccccc2Cl)Cc2nc(NC3CCCC3)ncc21 (stereo not drawn)
target-or-test-system: Arabidopsis thaliana
qualitative-label: Condition met
//
compound: NCCO/C=C/C(N)C(=O)O (stereo not drawn)
target-or-test-system: Arabidopsis thaliana
qualitative-label: Condition met
//
compound: CC1CC(=O)c2cnc(Nc3ccccc3)nc2C1 (stereo not drawn)
target-or-test-system: Arabidopsis thaliana
qualitative-label: Condition not met
//
compound: CC1(C)CC(=O)c2cnc(NC3CCCC3)nc2C1
target-or-test-system: Arabidopsis thaliana
qualitative-label: Condition met
//
compound: CC1(C)CC(=O)c2cnc(Nc3ccccc3)nc2C1
target-or-test-system: Arabidopsis thaliana
qualitative-label: Condition not met
//
compound: Cc1ccc(C2CC(=O)c3cnc(NC4CCCC4)nc3C2)cc1 (stereo not drawn)
target-or-test-system: Arabidopsis thaliana
qualitative-label: Condition met
//
compound: COc1ccc(C2CC(=O)c3cnc(Nc4ccccc4)nc3C2)cc1 (stereo not drawn)
target-or-test-system: Arabidopsis thaliana
qualitative-label: Condition met
//
compound: CCCCNc1ncc2c(n1)CC(c1ccccc1)CC2=O (stereo not drawn)
target-or-test-system: Arabidopsis thaliana
qualitative-label: Condition met

----------
Target: UniProt Q37001
Sequence (Q37001 whole entry): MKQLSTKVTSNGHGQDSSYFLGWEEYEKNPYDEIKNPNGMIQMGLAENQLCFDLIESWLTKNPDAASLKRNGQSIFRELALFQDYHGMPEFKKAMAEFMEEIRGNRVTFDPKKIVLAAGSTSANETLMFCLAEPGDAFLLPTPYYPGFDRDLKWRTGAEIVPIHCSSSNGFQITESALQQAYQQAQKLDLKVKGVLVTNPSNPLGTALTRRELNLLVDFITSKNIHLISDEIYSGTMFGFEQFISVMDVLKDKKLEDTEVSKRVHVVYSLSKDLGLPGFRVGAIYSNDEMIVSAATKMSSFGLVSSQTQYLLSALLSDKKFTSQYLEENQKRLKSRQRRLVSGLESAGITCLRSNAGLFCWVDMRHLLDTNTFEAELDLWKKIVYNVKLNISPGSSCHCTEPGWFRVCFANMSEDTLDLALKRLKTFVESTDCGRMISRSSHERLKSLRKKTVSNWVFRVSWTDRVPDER
Assay: Uncompetitive inhibition of Arabidopsis thaliana recombinant ACS5 expressed in Escherichia coli (BL21) assessed as oxidation of ACC to ethylene by Lineweaver-Burk plot analysis
pKi: −log10 of the molar value.
Item-by-item account of pKi
property-measured: pKi

compound: NCCO/C=C/C(N)C(=O)O (configuration not stated)
measured-result: 7.82
--
compound: COc1ccc(C2CC(=O)c3cnc(Nc4ccccc4)nc3C2)cc1 (configuration not stated)
measured-result: 7.64
